// data source = the nanobody polyreactivity screen of Harvey et al. (2022)

# procedure_details: yeast display, Sf9 membrane polyspecificity reagent, FACS + sequencing; frameworks hold sequencing errors
measurement_name: polyreactivity (PSR sort gate)

Example cases with answers are listed next.
sequence_code: QVQLVESGGGLVQAGGSLRLSCAASGRTFRYYAMGWYRQAPGKERELVAAINRGGSTYYADSVKGRFTISRDNAKNTVYLQMNSLKPEDTAVYYCNFDKYRIVGFHSPYDYWGQGSQVTVSS
value_measured: high polyreactivity
//
sequence_code: QVQLVESGGGLVQAGGSLRFSCAASRFNFYDYVMGWYRQAPGKYRELVAAISSNGGSTYYADSVKGRFTISRDNAKNTVYFQMYSLKPEDTAVYYCAVTENSKSNKIRPDQGDYWGQGTQVTVSS
value_measured: high polyreactivity
//
sequence_code: QVQLVESGGGLVQAGGSLRLSCAASGFIFRYYAMGWYRQAPGKERELVAAITKSGGRTFYADSVKGRFTISRDNAKNTVYLQMNSLKPEDTAVYYCAARANGRDDYWGQGTQVTVSS
value_measured: high polyreactivity
//
sequence_code: QVELVESGGGLVQAGGSRRLSCAASGSTFYAYAMGWYRQAPGKERELVAAISASGDSTYYADFVKGRFTISRDNAKNTVYLQMNSLTPEDTAVYYCAAEVYYRPQDYYTYPDYYWGQGTQVTVSS
value_measured: high polyreactivity
//
sequence_code: QVQLVESGGGLVQAGGSLRLSCAASGLIFYLYTMGWYRQAPGKERELVAAISRSGTITYYADSVKGRFTISRDNAKNSVYLQMNSLKPEDTAVYYCAATYTYKIGTRYDYWGQGTQVNVSS
value_measured: high polyreactivity

State the recorded polyreactivity (PSR sort gate) for this entry: QVQLVESGGGLVQAGGSLRLSCAASGSIFYSNAMGWYRQAPGKERELVAAISVSGVSTYYADSVKGRFTISRDNAKNTVYLQMNSLKPEDTAVYYCAADTGYRYDDYYWWGGEYDYWGQGTQVTVSS low polyreactivity

Same question for QVQLEESGAGVVQAGGSLRLSCAASGRTFQYNAMGWYRPAPGTERELVAAISSSGGSTYYADSVKGRFTISRDNAKNTVYFQMNSLNPEDTAVYYCNAYSQSWNFYGVGDYWGQGTQVTVSS please. low polyreactivity

Same question for QDQLVESGGGLVQAGGSLRLSCAASGITFSGNAKGCYRQAPGKETELVAAISRNGGRTYYADSVKGRFTISRDNAKNTVYLQMNSLKQEDTAVYYCAKDAYGYFRVSAWYYTYDYWGQGTQVTVSS please. high polyreactivity

Same question for QVQVVESGGGLVQAGGSLRLSCAASGFIIKDNAMGWYRQAPGKERELVAAITASGGRTYYADSVKGRFTISRDNAKNTVYLQMNSLKPEDTAVYYCAKRVKRPSESYNYNYYYWGQGTQVTVSS please. high polyreactivity
